Target: Amine oxidase [flavin-containing] B (Rattus norvegicus, UniProt P19643)
Sequence (P19643 whole entry): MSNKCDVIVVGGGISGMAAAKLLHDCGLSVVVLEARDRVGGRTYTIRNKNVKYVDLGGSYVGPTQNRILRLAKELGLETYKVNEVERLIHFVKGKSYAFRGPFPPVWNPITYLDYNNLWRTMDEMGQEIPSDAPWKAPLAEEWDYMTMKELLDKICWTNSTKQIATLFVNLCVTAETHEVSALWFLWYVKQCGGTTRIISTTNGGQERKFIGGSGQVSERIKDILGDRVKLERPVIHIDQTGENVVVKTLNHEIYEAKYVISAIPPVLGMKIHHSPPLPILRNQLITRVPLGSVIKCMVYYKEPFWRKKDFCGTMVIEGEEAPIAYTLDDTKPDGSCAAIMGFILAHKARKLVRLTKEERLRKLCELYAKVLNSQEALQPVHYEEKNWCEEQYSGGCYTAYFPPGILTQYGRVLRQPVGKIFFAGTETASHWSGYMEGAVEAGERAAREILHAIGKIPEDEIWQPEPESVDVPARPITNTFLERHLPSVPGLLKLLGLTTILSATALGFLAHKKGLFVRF
pIC50: −log10 of the molar value.
Literature survey of pIC50 (system: Amine oxidase [flavin-containing] B (Rattus norvegicus, UniProt P19643)).
ENDPOINT: pIC50

compound=CC(=O)Nc1ccc2c(c1)C(=O)c1ccccc1C2=O assay_target="Amine oxidase [flavin-containing] B (Rattus norvegicus, UniProt P19643)" operator== measured=5.46
compound=O=C(Nc1nc2ccccc2c(=O)s1)c1ccccc1 assay_target="Amine oxidase [flavin-containing] B (Rattus norvegicus, UniProt P19643)" operator=< measured=5.00
compound=Cc1nnc2c(c1Cc1ccccc1)C(=O)c1ccccc1-2 assay_target="Amine oxidase [flavin-containing] B (Rattus norvegicus, UniProt P19643)" operator== measured=4.08
compound=O=C(CCCc1cccc(Cl)c1)Nc1nc2ccccc2c(=O)s1 assay_target="Amine oxidase [flavin-containing] B (Rattus norvegicus, UniProt P19643)" operator== measured=5.16
compound=O=C(NCCCN1CCOCC1)c1ccc(O)nc1 assay_target="Amine oxidase [flavin-containing] B (Rattus norvegicus, UniProt P19643)" operator=< measured=4.00
compound=O=C1c2ccccc2-c2nnc(COc3ccccc3)cc21 assay_target="Amine oxidase [flavin-containing] B (Rattus norvegicus, UniProt P19643)" operator== measured=5.60
compound=CCCCNC(=O)Cc1cc(=O)oc2cc(OCc3cccc(Cl)c3)ccc12 assay_target="Amine oxidase [flavin-containing] B (Rattus norvegicus, UniProt P19643)" operator=< measured=5.00
compound=NCc1cc(=O)oc2cc(OCc3ccccc3)ccc12 assay_target="Amine oxidase [flavin-containing] B (Rattus norvegicus, UniProt P19643)" operator== measured=7.68
compound=O=C1c2ccccc2-c2nnc(-c3cccc([N+](=O)[O-])c3)nc21 assay_target="Amine oxidase [flavin-containing] B (Rattus norvegicus, UniProt P19643)" operator== measured=6.04
compound=c1ccc(-c2ncc3c(n2)Cc2ccccc2-3)cc1 assay_target="Amine oxidase [flavin-containing] B (Rattus norvegicus, UniProt P19643)" operator== measured=4.89
compound=Cc1c(C)c2ccc(OCc3nnc(C(C)C)s3)cc2oc1=O assay_target="Amine oxidase [flavin-containing] B (Rattus norvegicus, UniProt P19643)" operator== measured=9.05
compound=CNc1cnccc1CN assay_target="Amine oxidase [flavin-containing] B (Rattus norvegicus, UniProt P19643)" operator=< measured=3.77
compound=O=C(NCCN1CCOCC1)c1cccnc1O assay_target="Amine oxidase [flavin-containing] B (Rattus norvegicus, UniProt P19643)" operator=< measured=4.00
compound=CCOC(=O)CCCCc1ccc2c(c1)OCO2 assay_target="Amine oxidase [flavin-containing] B (Rattus norvegicus, UniProt P19643)" operator== measured=5.91
compound=Cc1ccc2nc(NC(=O)CCCc3ccccc3)sc(=O)c2c1 assay_target="Amine oxidase [flavin-containing] B (Rattus norvegicus, UniProt P19643)" operator== measured=6.49
compound=Cc1sc2nc(NC(=O)CCCc3ccccc3)sc(=O)c2c1C assay_target="Amine oxidase [flavin-containing] B (Rattus norvegicus, UniProt P19643)" operator== measured=7.58
compound=COc1cccc(C#CC(=O)Nc2nc3ccccc3c(=O)s2)c1 assay_target="Amine oxidase [flavin-containing] B (Rattus norvegicus, UniProt P19643)" operator== measured=7.13
compound="O=C(C1C=CC(c2ccc3c(c2)OCO3)C(/C=C/c2ccc3c(c2)OCO3)C1C(=O)N1CCCCC1)N1CCCCC1 (stereo not given)" assay_target="Amine oxidase [flavin-containing] B (Rattus norvegicus, UniProt P19643)" operator=< measured=4.00
compound=O=C(NCCCN1CCOCC1)c1cncc(Br)c1 assay_target="Amine oxidase [flavin-containing] B (Rattus norvegicus, UniProt P19643)" operator== measured=4.19
compound=Cc1ccc(C(/C=C/c2ccco2)=N\Nc2nc3ccccc3c(=O)n2C)cc1 assay_target="Amine oxidase [flavin-containing] B (Rattus norvegicus, UniProt P19643)" operator== measured=3.49
